Attribution: patent US9573887B2

# Assay System: Mouse VCP (Mus musculus, UniProt Q01853)
# Construct: histidine tag (N); made in house; host or cells: Sf-9 insect cells (baculovirus vector pVL1392)
# Sequence (Q01853 whole entry): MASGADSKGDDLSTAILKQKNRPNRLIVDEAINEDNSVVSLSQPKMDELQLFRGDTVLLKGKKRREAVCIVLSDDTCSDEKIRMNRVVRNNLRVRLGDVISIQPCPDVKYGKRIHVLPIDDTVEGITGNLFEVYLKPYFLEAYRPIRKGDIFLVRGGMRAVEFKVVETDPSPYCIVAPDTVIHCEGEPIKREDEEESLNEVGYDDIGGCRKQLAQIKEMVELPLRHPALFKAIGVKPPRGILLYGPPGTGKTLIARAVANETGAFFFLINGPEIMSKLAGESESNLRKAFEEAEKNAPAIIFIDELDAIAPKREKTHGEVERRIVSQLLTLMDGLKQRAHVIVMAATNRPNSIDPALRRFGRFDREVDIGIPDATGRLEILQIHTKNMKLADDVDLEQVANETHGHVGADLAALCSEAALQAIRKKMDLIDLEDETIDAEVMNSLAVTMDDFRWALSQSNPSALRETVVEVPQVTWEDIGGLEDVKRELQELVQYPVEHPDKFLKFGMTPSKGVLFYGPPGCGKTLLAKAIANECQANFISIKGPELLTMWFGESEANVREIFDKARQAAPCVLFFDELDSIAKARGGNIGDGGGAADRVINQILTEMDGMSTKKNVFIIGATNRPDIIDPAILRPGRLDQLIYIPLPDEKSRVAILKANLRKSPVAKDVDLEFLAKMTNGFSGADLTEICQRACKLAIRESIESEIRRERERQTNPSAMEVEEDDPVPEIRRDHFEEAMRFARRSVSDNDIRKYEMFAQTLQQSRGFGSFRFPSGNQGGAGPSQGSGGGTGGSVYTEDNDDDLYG
# Procedure Details: ATPase activity of purified His-tagged VCP, [γ-32P]ATP, liberated phosphate by liquid scintillation
# Format: biochemical
# Details: compounds of Examples; ATPase inhibitory activity; 500 ng VCP, 100 μM ATP, 37° C., 10 minutes
Counter-ions that a name gives are not always drawn.
Test Readout: pIC50
Friendly reminder that pIC50 comes from taking -log10 of the concentration in mol/L.

Completed entries (count: 3):
Compound: CCCOc1cc(F)ccc1-c1ccc(/N=N/c2cc(S(=O)(=O)O)c3ccccc3c2N)cn1 [Example 57, sodium salt]
pIC50: 5.86

Compound: Cc1cc(C)cc(-c2ccc(C)cc2-c2ccc(/N=N/c3cc(S(=O)(=O)O)c4ccccc4c3N)cn2)c1 [Example 74, sodium salt]
pIC50: 5.40

Compound: Nc1c(/N=N/c2ccc(Cl)cc2)cc(S(=O)(=O)O)c2ccccc12 [Example 100, sodium salt]
pIC50: 6.39

// below: pIC50 requested for another compound
query: Under Mouse VCP (Mus musculus, UniProt Q01853): report pIC50 of N#Cc1cccc(/N=N/c2cc(S(=O)(=O)O)c3ccccc3c2N)c1 [Example 106, sodium salt] .
result: 5.65

---

Documented IC50 across a set of molecules
# Assay System: Mouse VCP (Mus musculus)
# Construct: histidine tag (N); made in house; host or cells: Sf-9 insect cells (baculovirus vector pVL1392)
# Procedure Details: ATPase activity of purified His-tagged VCP, [γ-32P]ATP, liberated phosphate by liquid scintillation
# Format: biochemical
# Details: compounds of Examples; ATPase inhibitory activity; 500 ng VCP, 100 μM ATP, 37° C., 10 minutes
Structures can show the parent of a compound that is named as a salt.
Write the quantity with the unit trailing the number.

Molecule: Nc1c(/N=N/c2ccc(-c3ncco3)nc2)cc(S(=O)(=O)O)c2ccccc12 [Example 36, sodium salt]
IC50: 279 nM
//
Molecule: Nc1c(/N=N/c2c(Br)cc(-c3cccnc3)cc2Br)cc(S(=O)(=O)O)c2ccccc12 [Example 128, sodium salt]
IC50: 128 nM

query: Give IC50 for Nc1c(/N=N/c2ccc(NC(=O)c3cccs3)cc2)cc(S(=O)(=O)O)c2ccccc12 [Example 97, sodium salt]
result: 804 nM

query: Respond only with IC50 recorded for Nc1c(/N=N/c2ccccc2OCc2ccccn2)cc(S(=O)(=O)O)c2ccccc12 [Example 140, sodium salt]
result: 596 nM

query: Identify measured IC50 associated with Nc1c(/N=N/c2ccc(OCc3ccncc3)cc2)cc(S(=O)(=O)O)c2ccccc12 [Example 132, sodium salt]
result: 135 nM

---

# Assay System: Mouse VCP (Mus musculus, UniProt Q01853)
# Construct: histidine tag (N); made in house; host or cells: Sf-9 insect cells (baculovirus vector pVL1392)
# Procedure Details: ATPase activity of purified His-tagged VCP, [γ-32P]ATP, liberated phosphate by liquid scintillation
# Type: biochemical
# Details: compounds of Examples; ATPase inhibitory activity; 500 ng VCP, 100 μM ATP, 37° C., 10 minutes
Where a name gives a salt, the structure may show the parent alone.
Test Readout: IC50 (µM)
Numbers only; they are read as µM.

query: Given Nc1c(/N=N/c2cnc(-c3ccccc3)c(-c3ccccc3)c2)cc(S(=O)(=O)O)c2ccccc12 [Example 89, sodium salt] , report its IC50 on Mouse VCP (Mus musculus, UniProt Q01853).
result: 0.501

query: Return reported IC50 for target or system Mouse VCP (Mus musculus, UniProt Q01853), item Cc1ccc(/N=N/c2cc(S(=O)(=O)O)c3ccccc3c2N)c([N+](=O)[O-])c1 [Example 120, sodium salt] .
result: 0.162

query: Find the measured IC50 of Cc1ccc(-c2ccc(Cl)cc2)c(-c2ccc(/N=N/c3cc(S(=O)(=O)O)c4ccccc4c3N)cn2)c1 [Example 72, sodium salt] with Mouse VCP (Mus musculus, UniProt Q01853) as test system.
result: 0.796

query: Check Mouse VCP (Mus musculus, UniProt Q01853) data and give IC50 for Nc1c(/N=N/c2ccc(-c3ccccc3OCCCCCCO)nc2)cc(S(=O)(=O)O)c2ccccc12 [Example 64, sodium salt] .
result: 0.324

query: Please report the measured IC50 for Cc1ccc(F)cc1-c1ccc(/N=N/c2cc(S(=O)(=O)O)c3ccccc3c2N)cn1 [Example 58, sodium salt] tested on Mouse VCP (Mus musculus, UniProt Q01853).
result: 0.32

query: With Mouse VCP (Mus musculus, UniProt Q01853) as the test system, provide measured IC50 for this molecule: Nc1c(/N=N/c2c(Cl)cc(Cl)cc2Cl)cc(S(=O)(=O)O)c2ccccc12 [Example 115, sodium salt]
result: 0.297

query: Specify IC50 for Nc1c(/N=N/c2ccc(F)cc2F)cc(S(=O)(=O)O)c2ccccc12 [Example 116, sodium salt] , system Mouse VCP (Mus musculus, UniProt Q01853).
result: 1.23
